biological target: Protein-glutamine gamma-glutamyltransferase (Homo sapiens) (UniProt P21980); test: Irreversible inhibition of human recombinant tissue transglutaminase expressed in Escherichia coli using Cbz-Glu-(gamma-p-nitrophenylester)Gly (AL5) as substrate assessed as substrate hydrolysis by measuring Kinact/Ki ratio by linear regression analysis
Sequence (P21980 whole entry): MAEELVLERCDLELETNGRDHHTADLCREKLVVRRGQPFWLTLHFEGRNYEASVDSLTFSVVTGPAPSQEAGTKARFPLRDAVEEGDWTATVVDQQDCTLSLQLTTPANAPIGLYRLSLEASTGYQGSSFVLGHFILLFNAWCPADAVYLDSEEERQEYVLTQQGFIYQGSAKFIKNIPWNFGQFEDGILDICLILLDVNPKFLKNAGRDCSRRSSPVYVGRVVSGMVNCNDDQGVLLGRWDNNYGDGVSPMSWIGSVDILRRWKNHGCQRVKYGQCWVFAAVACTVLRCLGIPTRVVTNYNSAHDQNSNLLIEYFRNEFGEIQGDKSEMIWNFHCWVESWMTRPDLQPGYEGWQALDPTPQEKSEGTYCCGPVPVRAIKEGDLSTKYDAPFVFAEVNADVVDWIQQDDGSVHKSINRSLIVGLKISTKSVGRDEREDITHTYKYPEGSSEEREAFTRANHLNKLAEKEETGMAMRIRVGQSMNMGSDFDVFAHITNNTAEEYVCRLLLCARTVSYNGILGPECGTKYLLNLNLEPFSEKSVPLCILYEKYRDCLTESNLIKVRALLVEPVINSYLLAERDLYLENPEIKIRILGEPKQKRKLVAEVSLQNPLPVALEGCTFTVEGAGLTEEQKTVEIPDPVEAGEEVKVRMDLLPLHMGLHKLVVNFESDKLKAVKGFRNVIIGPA
Provide the recorded Ratio for the entries that follow.

Record summary for O=C(CCl)NCC(=O)N1CCN(C(=O)C23CC4CC(CC(C4)C2)C3)CC1 : reported Ratio = 4540 10^3/M/min

compound C=C(Br)C(=O)NCC(=O)N1CCN(C(=O)C23CC4CC(CC(C4)C2)C3)CC1 , Ratio observed: 2320 10^3/M/min

So, C/C=C/C(=O)NCC(=O)N1CCN(C(=O)C23CC4CC(CC(C4)C2)C3)CC1 ? Its Ratio was 6.7 10^3/M/min

What the record says about C=C(Cl)C(=O)NCC(=O)N1CCN(C(=O)C23CC4CC(CC(C4)C2)C3)CC1 : Ratio is 3140 10^3/M/min

The compound listed as C#CC(=O)NCC(=O)N1CCN(C(=O)C23CC4CC(CC(C4)C2)C3)CC1 has a reported Ratio of 87.7 10^3/M/min

Ratio recorded for this compound, [N-]=[N+]=CC(=O)NCC(=O)N1CCN(C(=O)C23CC4CC(CC(C4)C2)C3)CC1 , is 95 10^3/M/min

Recorded result, C=C(F)C(=O)NCC(=O)N1CCN(C(=O)C23CC4CC(CC(C4)C2)C3)CC1 , Ratio: 28.5 10^3/M/min

// Ratio lookup, compound = C=C(C(=O)NCC(=O)N1CCN(C(=O)C23CC4CC(CC(C4)C2)C3)CC1)C(F)(F)F , result: 209 10^3/M/min

// Ratio value for O=C(NCC(=O)N1CCN(C(=O)C23CC4CC(CC(C4)C2)C3)CC1)C(F)Cl (stereo not given) : 16 10^3/M/min

Lookup result for O=C(CN=C=S)N1CCN(C(=O)C23CC4CC(CC(C4)C2)C3)CC1 ; measured Ratio: 17.7 10^3/M/min
